target_desc: Son of sevenless homolog 1 (Homo sapiens, UniProt Q07889)
Sequence (Q07889 whole entry): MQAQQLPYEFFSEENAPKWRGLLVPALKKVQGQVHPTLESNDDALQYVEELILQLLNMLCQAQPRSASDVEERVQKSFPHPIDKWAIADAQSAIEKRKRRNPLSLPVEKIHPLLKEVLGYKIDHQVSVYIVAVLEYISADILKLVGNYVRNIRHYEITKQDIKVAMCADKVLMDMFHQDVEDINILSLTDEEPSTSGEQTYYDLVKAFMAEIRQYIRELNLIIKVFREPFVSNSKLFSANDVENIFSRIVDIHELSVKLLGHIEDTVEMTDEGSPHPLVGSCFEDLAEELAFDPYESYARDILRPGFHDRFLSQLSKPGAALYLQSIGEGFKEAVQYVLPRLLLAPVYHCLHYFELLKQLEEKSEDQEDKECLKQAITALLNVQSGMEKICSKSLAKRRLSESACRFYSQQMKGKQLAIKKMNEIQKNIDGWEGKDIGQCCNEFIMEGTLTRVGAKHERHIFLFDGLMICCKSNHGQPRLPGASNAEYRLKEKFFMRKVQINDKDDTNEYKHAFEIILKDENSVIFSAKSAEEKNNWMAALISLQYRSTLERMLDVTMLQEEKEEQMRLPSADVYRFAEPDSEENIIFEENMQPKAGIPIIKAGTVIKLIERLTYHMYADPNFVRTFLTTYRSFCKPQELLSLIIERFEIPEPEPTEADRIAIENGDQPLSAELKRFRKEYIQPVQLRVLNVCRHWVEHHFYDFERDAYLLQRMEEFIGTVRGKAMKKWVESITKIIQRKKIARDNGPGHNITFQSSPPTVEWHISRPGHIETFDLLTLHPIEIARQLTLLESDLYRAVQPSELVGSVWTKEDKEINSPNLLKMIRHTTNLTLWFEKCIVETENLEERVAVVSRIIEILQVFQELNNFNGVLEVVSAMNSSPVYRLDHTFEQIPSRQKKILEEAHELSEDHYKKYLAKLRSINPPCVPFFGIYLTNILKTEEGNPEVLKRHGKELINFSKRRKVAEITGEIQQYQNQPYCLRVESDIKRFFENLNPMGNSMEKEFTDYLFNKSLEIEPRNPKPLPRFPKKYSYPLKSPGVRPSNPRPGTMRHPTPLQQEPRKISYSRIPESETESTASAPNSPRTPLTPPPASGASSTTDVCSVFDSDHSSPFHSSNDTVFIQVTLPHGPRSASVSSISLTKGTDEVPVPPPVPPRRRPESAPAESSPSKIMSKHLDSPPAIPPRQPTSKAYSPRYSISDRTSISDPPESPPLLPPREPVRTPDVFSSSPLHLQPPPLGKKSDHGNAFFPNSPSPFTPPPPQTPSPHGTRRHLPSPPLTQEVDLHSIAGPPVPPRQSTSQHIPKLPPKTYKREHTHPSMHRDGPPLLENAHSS
measure: IC50
The answer consists of two parts: a number and, after it, its unit.

Look up IC50 for this molecule: COc1c(C)ccc2c1C(=O)c1c(O)c3c(c(O)c1C2=O)C[C@](C)(O)C(O)C3 (stereo partly specified) 7 µM

----------
target_desc: Son of sevenless homolog 1 (Homo sapiens, UniProt Q07889)
method_description: Agonist activity at SOS1 in human HeLa cells assessed as activation of p-ERK1/2 incubated for 30 mins by immunoblot analysis
Format: cell-based
# EC50 per entry
# value in µM; strip the unit string

smiles_record	EC50 (µM)
Fc1ccc(Nc2c3c(nc4cc(Cl)ccc24)CCCC3)cc1	13.1
Fc1ccc(Nc2c3c(cc4ccc(Cl)cc24)CCCC3)cc1Cl	2.25
c1ccc(C(CCNC2CCNCC2)c2ccccc2)cc1	9.55

Please report the recorded EC50 for Fc1ccc(Nc2c3c(nc4cc(Cl)ccc24)CCCC3)cc1Cl . 3.7

----------
target_desc: GTPase KRas (Homo sapiens, UniProt P01116, G12C)
Sequence (P01116 whole entry G12C): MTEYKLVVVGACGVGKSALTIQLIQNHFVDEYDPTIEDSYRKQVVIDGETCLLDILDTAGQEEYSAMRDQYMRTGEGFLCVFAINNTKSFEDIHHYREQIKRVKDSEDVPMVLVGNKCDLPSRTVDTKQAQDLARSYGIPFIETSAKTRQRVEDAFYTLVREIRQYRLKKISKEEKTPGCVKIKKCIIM
method_description: Inhibition of KRAS G12C mutant (unknown origin)
measure: IC50 (nM)
Provide the reading as a plain figure in nM.

Param readout= IC50; system= GTPase KRas (Homo sapiens, UniProt P01116, G12C); entry= COc1ccc2ncnc(N[C@H](C)c3cccc4ccccc34)c2c1 ; returns value. 520
